All figures here come from patent US20230151003A1.

target: UniProt P08581; test: Met autophosphorylation ELISA in PC-3 cells; type: cell-based; set-up: endogenous in cells; host or cells: PC-3 prostate cancer cells (ATCC #CRL-1435); conditions: Table 3 Cellular Activities, HGF-stimulated, phospho-Met ELISA, read-out: c-Met IC50
Sequence (P08581 25-1390): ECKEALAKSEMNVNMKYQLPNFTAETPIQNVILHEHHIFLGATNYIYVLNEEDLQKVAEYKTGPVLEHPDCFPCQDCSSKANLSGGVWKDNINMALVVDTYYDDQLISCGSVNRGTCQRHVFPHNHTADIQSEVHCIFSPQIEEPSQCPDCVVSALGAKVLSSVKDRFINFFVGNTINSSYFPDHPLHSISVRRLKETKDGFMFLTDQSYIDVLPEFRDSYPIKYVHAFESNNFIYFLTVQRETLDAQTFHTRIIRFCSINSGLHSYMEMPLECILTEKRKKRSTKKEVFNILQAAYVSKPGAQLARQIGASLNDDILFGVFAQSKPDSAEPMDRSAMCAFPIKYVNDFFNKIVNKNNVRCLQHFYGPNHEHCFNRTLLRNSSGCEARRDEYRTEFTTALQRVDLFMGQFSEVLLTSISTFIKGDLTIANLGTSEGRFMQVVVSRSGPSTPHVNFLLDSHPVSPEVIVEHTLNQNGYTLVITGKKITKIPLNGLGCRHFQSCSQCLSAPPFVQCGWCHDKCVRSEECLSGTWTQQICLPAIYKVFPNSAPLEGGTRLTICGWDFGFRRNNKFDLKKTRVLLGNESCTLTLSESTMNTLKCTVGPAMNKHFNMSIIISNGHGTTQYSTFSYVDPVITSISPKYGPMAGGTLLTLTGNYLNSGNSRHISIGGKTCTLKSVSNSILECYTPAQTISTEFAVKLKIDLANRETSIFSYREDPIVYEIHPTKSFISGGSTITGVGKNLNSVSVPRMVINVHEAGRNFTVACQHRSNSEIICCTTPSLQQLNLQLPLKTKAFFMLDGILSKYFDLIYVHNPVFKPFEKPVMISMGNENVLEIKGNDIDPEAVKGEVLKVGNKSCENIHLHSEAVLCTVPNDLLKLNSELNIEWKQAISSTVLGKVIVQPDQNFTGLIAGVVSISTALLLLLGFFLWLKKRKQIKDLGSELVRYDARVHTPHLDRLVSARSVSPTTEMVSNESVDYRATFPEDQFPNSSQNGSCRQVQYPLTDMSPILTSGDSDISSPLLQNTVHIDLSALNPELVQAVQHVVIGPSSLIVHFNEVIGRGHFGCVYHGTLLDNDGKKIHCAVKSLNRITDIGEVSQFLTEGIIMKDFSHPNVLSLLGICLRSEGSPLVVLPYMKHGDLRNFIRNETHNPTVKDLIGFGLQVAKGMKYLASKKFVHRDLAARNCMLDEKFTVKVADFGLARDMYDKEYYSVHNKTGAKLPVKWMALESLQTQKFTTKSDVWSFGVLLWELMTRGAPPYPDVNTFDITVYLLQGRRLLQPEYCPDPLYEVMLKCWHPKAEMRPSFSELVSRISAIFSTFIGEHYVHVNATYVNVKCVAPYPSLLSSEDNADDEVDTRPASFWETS
pIC50: −log10 of the molar value.
# pIC50 listing for each entry below
observation type: pIC50

> print(dat)
                                smiles.text  recorded.value
1  COCCOc1cnc2c(Oc3ccc(NC(=O)c4c(C)n(C)c(C)c(-c5coc6ccccc56)c4=O)cc3F)ccnc2c1    6.00 to 6.52
2  COc1cc2nccc(Oc3ccc(NC(=O)c4c5n(c(C)c(-c6ccsc6)c4=O)CCOC5)cc3F)c2nc1OC          ≥ 7.00
3  COc1cc2nccc(Oc3ccc(NC(=O)c4cnc(C)c(-c5ccc(C)o5)c4O)cc3F)c2nc1OC          ≥ 7.00
4  CCc1ccc(-c2c(C)nc(C)c(C(=O)Nc3ccc(Oc4ccnc5cc(OC)c(OC)nc45)c(F)c3)c2O)o1          ≥ 7.00
